Data origin: ChEMBL document CHEMBL5500402

Reported pEC50 values follow for various molecules
# TARGET: N-arachidonyl glycine receptor (Mus musculus, UniProt Q8K1Z6)
# Sequence (Q8K1Z6 whole entry): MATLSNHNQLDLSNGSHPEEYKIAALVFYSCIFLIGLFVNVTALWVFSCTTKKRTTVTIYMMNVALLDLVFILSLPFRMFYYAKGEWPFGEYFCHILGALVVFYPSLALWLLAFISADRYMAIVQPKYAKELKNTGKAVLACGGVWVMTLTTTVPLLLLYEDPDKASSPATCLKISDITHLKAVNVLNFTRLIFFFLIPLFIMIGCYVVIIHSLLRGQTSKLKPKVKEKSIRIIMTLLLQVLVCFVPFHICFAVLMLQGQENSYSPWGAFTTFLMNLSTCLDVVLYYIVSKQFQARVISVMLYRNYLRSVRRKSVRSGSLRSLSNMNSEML
# reply with the number alone; pEC50 is -log10 of concentration in mol/L

Some molecules with recorded pEC50:
- Cn1c(=O)c2c(nc(NCCc3c[nH]c4ccccc34)n2CCc2ccccc2)n(C)c1=O: 6.54
- Cn1c(=O)c2c(nc(NCCc3c[nH]c4ccccc34)n2Cc2ccc(Cl)cc2)n(CC(F)(F)F)c1=O: 6.15
- C=CCCn1c(NCCc2c[nH]c3ccccc23)nc2c1c(=O)n(C)c(=O)n2C: 6.35
- CCCNC(=O)c1ccc(Cn2c(NCCc3c[nH]c4ccccc34)nc3c2c(=O)n(C)c(=O)n3C)cc1: 5.90
- CCCCn1c(NCCc2c[nH]c3ccccc23)nc2c1c(=O)n(C)c(=O)n2C: 6.68
- C=CCn1c(NCCc2c[nH]c3ccccc23)nc2c1c(=O)n(C)c(=O)n2C: 6.42
- COc1cccc(Cn2c(NCCc3c[nH]c4ccccc34)nc3c2c(=O)n(C)c(=O)n3C)c1: 6.61
- CCn1c(NCCc2c[nH]c3ccccc23)nc2c1c(=O)n(C)c(=O)n2C: 6.42

The measured pEC50 that Cn1c(=O)c2c(nc(NCCc3c[nH]c4ccccc34)n2Cc2ccc(Cl)cc2)n(C)c1=O showed for N-arachidonyl glycine receptor (Mus musculus, UniProt Q8K1Z6) is 7.27

Kindly note: N-arachidonyl glycine receptor (Mus musculus, UniProt Q8K1Z6), Cn1c(=O)c2c(nc(NCCc3c[nH]c4ccccc34)n2Cc2ccc(C(F)(F)F)cc2)n(C)c1=O , pEC50 value reported: 6.67

Value (pEC50, N-arachidonyl glycine receptor (Mus musculus, UniProt Q8K1Z6)) for record Cn1c(=O)c2c(nc(NCCc3c[nH]c4ccccc34)n2CCCc2ccccc2)n(C)c1=O = 6.64

Value (pEC50, N-arachidonyl glycine receptor (Mus musculus, UniProt Q8K1Z6)) for record Cn1c(=O)c2c(nc(NCCc3c[nH]c4ccccc34)n2Cc2cccc(Cl)c2)n(C)c1=O = 6.66

Per the reported N-arachidonyl glycine receptor (Mus musculus, UniProt Q8K1Z6) data, CC(C)c1ccc(Cn2c(NCCc3c[nH]c4ccccc34)nc3c2c(=O)n(C)c(=O)n3C)cc1 has pEC50 of 6.82

# value of pEC50, N-arachidonyl glycine receptor (Mus musculus, UniProt Q8K1Z6), item Cn1c(=O)c2c(nc(NCCc3c[nH]c4ccccc34)n2Cc2ccc([N+](=O)[O-])cc2)n(C)c1=O = 6.55

Value sought: pEC50, system N-arachidonyl glycine receptor (Mus musculus, UniProt Q8K1Z6), item Cn1c(=O)c2c(nc(NCCc3c[nH]c4ccccc34)n2Cc2ccc(F)c(Cl)c2)n(C)c1=O . Result: 6.60

Simply: Cn1c(=O)c2c(nc(NCCc3c[nH]c4ccccc34)n2C)n(C)c1=O , N-arachidonyl glycine receptor (Mus musculus, UniProt Q8K1Z6), pEC50 = 5.53

Field pEC50 (system: N-arachidonyl glycine receptor (Mus musculus, UniProt Q8K1Z6)) for entry CCC#CCn1c(NCCc2c[nH]c3ccccc23)nc2c1c(=O)n(C)c(=O)n2C = 6.43

Summary line: Cn1c(=O)c2c(nc(NCCc3c[nH]c4ccccc34)n2Cc2ccc(Cl)cc2)n(CCO)c1=O , N-arachidonyl glycine receptor (Mus musculus, UniProt Q8K1Z6), reported pEC50 = 5.92
